# pIC50 measurements, system: Tyrosine-protein kinase ABL1 (Homo sapiens, UniProt P00519)
# Sequence (P00519 whole entry): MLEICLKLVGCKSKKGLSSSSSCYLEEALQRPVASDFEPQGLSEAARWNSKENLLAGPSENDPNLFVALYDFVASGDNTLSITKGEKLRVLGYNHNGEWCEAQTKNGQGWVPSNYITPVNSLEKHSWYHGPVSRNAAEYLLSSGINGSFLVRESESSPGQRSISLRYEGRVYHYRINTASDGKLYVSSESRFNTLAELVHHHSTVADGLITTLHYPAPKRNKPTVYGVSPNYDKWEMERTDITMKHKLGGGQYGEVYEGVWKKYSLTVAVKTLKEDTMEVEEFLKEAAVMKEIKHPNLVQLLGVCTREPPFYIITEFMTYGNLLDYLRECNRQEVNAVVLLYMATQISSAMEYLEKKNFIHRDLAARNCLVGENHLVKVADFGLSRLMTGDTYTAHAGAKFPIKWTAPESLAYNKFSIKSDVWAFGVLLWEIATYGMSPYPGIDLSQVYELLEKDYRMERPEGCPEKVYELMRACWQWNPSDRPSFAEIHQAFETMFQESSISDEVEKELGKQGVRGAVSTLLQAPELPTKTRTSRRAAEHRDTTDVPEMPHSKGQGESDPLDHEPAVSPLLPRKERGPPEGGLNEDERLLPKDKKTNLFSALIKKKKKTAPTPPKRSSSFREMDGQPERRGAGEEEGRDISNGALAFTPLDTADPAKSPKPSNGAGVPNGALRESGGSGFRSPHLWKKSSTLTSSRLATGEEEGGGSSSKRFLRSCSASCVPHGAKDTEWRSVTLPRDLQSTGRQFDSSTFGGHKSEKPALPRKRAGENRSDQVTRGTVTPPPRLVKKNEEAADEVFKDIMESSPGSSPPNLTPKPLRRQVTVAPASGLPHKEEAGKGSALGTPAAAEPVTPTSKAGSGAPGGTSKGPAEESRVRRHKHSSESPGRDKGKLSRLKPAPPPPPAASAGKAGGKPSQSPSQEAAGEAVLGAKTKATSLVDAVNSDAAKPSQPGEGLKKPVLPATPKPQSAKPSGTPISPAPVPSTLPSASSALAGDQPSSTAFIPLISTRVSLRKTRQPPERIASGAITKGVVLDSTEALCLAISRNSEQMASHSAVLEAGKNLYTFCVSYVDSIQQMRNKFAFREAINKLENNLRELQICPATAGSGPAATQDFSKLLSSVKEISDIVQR
pIC50: −log10 of the molar value.

cpdSmiles | pIC50
N[C@@H](CCCN/C=C1\C(=O)Nc2ccc(Br)cc21)C(=O)O | < 5.00
N[C@@H](CCCCN/C=C1\C(=O)Nc2ccccc21)C(=O)O | < 5.00
N[C@@H](CCCCN/C=C1\C(=O)Nc2ccc(Br)cc21)C(=O)O | < 5.00

###

targetOfAssay: Proto-oncogene tyrosine-protein kinase receptor Ret (Homo sapiens)
Sequence (P07949 whole entry): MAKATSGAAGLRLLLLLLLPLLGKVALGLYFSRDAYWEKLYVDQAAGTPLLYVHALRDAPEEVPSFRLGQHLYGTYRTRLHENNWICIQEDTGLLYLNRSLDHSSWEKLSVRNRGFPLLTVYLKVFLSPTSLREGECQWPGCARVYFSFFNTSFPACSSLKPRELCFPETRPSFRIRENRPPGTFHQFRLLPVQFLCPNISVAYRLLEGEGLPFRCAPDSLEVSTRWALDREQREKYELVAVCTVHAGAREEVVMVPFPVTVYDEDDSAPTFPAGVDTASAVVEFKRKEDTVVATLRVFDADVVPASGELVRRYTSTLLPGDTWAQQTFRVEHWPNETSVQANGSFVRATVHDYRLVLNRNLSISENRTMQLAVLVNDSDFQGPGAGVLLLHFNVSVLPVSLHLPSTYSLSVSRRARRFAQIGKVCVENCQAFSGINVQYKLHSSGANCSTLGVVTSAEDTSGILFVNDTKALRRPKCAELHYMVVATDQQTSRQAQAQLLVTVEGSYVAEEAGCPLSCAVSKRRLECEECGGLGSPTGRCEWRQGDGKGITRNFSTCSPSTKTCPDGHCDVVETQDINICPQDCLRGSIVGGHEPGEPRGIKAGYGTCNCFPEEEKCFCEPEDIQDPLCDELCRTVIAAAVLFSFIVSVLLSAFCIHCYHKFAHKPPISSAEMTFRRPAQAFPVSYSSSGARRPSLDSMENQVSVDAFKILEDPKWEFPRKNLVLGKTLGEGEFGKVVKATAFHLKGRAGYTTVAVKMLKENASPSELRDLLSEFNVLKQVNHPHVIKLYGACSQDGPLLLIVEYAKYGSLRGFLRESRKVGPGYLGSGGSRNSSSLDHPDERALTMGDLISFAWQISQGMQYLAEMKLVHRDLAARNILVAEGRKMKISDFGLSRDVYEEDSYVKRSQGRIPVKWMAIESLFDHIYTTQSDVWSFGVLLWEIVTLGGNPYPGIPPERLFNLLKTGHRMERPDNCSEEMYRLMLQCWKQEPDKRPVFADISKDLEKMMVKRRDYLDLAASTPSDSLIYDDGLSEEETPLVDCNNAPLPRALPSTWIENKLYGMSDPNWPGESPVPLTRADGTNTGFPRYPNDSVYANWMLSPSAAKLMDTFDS

cpdSmiles | targetOfAssay | IC50
N[C@@H](CCCN/C=C1\C(=O)Nc2ccccc21)C(=O)O | Proto-oncogene tyrosine-protein kinase receptor Ret (Homo sapiens) | > 10 µM
N[C@@H](CCCCN/C=C1\C(=O)Nc2ccccc21)C(=O)O | Proto-oncogene tyrosine-protein kinase receptor Ret (Homo sapiens) | > 10 µM
N[C@@H](CCCN/C=C1\C(=O)Nc2ccc(Br)cc21)C(=O)O | Proto-oncogene tyrosine-protein kinase receptor Ret (Homo sapiens) | > 10 µM

###

# IC50 measurements, system: Hepatocyte growth factor receptor (Homo sapiens, UniProt P08581)
# Sequence (P08581 whole entry): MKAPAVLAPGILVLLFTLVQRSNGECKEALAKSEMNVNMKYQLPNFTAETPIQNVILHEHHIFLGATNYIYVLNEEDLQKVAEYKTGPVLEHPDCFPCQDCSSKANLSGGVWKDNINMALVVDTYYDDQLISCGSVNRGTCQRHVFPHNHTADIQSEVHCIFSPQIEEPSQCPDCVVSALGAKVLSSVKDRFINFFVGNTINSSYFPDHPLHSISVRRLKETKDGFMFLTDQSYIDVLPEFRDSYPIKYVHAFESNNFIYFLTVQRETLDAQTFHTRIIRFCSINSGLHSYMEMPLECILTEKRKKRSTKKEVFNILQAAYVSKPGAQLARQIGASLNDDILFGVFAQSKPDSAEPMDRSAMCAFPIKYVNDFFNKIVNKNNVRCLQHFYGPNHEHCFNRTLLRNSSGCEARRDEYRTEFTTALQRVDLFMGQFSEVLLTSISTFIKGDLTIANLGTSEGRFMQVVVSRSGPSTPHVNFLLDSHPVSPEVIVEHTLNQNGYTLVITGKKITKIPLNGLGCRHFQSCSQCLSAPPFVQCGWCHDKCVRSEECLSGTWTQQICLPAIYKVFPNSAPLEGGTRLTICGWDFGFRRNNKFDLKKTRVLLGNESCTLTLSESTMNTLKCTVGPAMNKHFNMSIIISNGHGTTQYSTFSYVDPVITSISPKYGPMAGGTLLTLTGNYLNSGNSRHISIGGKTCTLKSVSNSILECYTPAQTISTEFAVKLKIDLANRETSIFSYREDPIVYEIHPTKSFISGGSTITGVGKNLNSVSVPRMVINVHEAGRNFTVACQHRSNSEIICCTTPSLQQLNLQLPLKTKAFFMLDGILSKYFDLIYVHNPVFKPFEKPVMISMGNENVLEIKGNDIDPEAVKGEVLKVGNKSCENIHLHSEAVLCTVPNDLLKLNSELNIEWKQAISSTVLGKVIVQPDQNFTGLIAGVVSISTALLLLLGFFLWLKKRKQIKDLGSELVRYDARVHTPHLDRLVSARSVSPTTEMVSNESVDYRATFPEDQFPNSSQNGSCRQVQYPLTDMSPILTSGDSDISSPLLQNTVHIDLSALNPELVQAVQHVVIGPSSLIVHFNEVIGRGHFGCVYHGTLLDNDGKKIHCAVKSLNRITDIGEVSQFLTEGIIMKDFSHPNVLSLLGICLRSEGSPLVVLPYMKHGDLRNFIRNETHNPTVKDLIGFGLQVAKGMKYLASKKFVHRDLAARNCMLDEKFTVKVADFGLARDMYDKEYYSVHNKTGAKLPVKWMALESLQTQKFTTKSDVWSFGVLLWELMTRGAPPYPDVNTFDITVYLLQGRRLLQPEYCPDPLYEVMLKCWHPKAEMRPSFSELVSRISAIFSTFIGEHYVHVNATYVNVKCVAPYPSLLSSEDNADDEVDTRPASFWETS

cpdSmiles | IC50
N[C@@H](CCCCN/C=C1\C(=O)Nc2ccc(Br)cc21)C(=O)O | > 10 µM
N[C@@H](CCCN/C=C1\C(=O)Nc2ccc(Br)cc21)C(=O)O | > 10 µM
N[C@@H](CCCN/C=C1\C(=O)Nc2ccccc21)C(=O)O | > 10 µM

###

targetOfAssay: Vascular endothelial growth factor receptor 2 (Homo sapiens, UniProt P35968)
Sequence (P35968 whole entry): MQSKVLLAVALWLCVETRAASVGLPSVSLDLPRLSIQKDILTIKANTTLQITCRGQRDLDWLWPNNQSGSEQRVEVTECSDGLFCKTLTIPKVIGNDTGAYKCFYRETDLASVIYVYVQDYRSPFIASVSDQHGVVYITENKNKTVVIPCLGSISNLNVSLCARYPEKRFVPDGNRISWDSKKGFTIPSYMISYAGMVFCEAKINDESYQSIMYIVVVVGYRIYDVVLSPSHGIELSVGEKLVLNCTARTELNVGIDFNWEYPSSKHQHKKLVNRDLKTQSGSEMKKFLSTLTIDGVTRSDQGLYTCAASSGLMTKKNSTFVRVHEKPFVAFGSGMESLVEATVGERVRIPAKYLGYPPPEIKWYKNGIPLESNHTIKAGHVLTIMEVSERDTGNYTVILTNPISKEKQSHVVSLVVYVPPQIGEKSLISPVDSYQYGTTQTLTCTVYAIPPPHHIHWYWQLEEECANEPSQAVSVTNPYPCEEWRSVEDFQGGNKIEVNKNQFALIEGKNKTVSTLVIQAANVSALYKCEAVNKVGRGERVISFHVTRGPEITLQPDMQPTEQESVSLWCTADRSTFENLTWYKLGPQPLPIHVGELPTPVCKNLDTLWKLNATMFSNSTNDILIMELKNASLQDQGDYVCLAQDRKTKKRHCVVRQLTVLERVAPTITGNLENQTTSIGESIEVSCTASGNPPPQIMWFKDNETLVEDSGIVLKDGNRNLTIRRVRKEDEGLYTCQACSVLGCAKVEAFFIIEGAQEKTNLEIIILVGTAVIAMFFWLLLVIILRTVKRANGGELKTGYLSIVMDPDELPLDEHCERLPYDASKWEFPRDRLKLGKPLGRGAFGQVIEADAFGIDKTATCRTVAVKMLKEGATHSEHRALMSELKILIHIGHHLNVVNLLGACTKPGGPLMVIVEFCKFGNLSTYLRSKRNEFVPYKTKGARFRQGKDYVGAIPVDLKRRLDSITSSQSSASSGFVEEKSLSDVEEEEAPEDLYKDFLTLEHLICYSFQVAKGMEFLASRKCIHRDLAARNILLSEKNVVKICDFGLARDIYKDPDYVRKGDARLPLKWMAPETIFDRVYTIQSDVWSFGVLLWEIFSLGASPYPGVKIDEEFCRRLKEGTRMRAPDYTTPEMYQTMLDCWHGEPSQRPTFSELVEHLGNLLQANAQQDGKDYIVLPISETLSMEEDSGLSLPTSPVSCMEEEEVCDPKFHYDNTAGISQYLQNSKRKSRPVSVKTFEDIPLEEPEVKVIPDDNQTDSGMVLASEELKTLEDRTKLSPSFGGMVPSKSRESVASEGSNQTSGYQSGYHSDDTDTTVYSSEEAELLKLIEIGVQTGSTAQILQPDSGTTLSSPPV

cpdSmiles | IC50
N[C@@H](CCCCN/C=C1\C(=O)Nc2ccccc21)C(=O)O | > 10 µM

###

targetOfAssay: Cyclin-dependent kinase 2 (Homo sapiens, UniProt P24941)
experimentNotes: Inhibition of CDK2/Cyclin A
endpoint: IC50

cpdSmiles | valueMeasured
N[C@@H](CCCN/C=C1\C(=O)Nc2ccc(Br)cc21)C(=O)O | 6.6 µM
